- Target Desc: E. coli GyrB (full length) (Escherichia coli, UniProt P0AES6)
Readout Type: Ki (nM)
Just the number in nM, nothing appended.

(Q) # lookup: E. coli GyrB (full length) (Escherichia coli, UniProt P0AES6) Ki, key = CNc1cc(F)cc2c1[nH]c1nc(Oc3cnc(C)nc3)nc(N3C[C@@H]4[C@H](N)C[C@]4(C)C3)c12 [C4]
(A) 0.3

###

- Target Desc: F. tularensis ParE (full length) (Francisella tularensis)
- Sequence (A0A0J9WZF0 whole entry, looked up): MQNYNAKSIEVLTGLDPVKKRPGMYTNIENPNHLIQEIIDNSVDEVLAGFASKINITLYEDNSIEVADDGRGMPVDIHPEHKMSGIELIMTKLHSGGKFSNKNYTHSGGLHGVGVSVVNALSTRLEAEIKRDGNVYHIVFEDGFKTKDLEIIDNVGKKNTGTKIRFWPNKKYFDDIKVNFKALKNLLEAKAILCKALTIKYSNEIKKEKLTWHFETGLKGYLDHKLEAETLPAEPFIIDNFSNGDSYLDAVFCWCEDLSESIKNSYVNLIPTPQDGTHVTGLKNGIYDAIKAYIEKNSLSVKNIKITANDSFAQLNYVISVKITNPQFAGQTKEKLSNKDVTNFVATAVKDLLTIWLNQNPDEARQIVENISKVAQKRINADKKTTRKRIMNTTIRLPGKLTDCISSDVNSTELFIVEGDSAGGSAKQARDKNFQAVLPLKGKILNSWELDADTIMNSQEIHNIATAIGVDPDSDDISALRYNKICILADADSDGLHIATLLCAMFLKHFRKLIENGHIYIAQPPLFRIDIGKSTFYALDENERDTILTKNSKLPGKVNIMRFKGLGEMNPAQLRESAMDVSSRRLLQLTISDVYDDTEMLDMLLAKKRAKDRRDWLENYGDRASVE
Readout Type: Ki (nM)
Just the number in nM, nothing appended.

(Q) # return recorded Ki for input `CNc1cc(F)cc2c1[nH]c1nc(Oc3cnc(C)nc3)nc(N3C[C@@H]4[C@H](N)C[C@]4(C)C3)c12`
(A) 0.8
